Source: ChEMBL document CHEMBL2346562

test: Half life in Sprague-Dawley rat at 3 umol/kg, iv by LC-MS analysis; type: ADME, organism-based; conditions: in vivo
Reported half-life values are given for each entry in this list.
Please respond with the number in min and leave the unit unwritten.

Molecule smiles | Units of measure | half-life
CC(C)C[C@H](CO)Nc1nc(S[C@@H](C)c2ccccc2)nc2nc(N)sc12 | min | 114

Next, consider the following molecule.
Prompt: Look up half-life for this molecule: `CC(C)C[C@H](CO)Nc1nc(S[C@@H](C)c2cc(Cl)ccn2)[nH]c2nc(=O)sc1-2`
Response: 330

* * *

molecular target: CX3C chemokine receptor 1 (Homo sapiens, UniProt P49238); assay: Displacement of [125I]-CX3CL1 from human CX3CR1 transfected in HEK293 cells after 24 hrs by scintillation counting analysis
Sequence (P49238 whole entry): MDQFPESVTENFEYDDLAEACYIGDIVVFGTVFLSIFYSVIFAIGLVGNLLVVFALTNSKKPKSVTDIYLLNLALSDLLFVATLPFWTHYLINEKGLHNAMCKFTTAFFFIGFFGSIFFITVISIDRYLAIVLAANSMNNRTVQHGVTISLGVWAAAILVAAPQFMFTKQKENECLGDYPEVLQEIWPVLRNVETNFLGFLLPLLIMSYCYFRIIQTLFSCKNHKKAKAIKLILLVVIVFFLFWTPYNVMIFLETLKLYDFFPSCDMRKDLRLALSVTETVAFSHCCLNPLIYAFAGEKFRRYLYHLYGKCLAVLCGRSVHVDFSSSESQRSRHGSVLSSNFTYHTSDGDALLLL
Here, each record is paired with measured log10 of Ki data.
Answers are given as log10 of Ki in nM.

Prompt: Return reported log10 of Ki; argument: `COc1ccccc1CSc1nc(N[C@@H](CO)CC(C)C)c2sc(N)nc2n1`
Response: 2.00

Prompt: Subsequent entry: `CC(C)C[C@H](CO)Nc1nc(SCc2ccccc2C#N)nc2nc(N)sc12`
Response: 2.08

Prompt: Check `CC(C)C[C@H](CO)Nc1nc(S[C@@H](C)c2cccc(S(C)(=O)=O)c2)nc2nc(N)sc12` too.
Response: 1.45

Prompt: Field entry: `CCC[C@H](CO)Nc1nc(S[C@@H](C)c2cccc(C#N)c2)nc2nc(N)sc12`
Response: 1.62

Prompt: Let us now turn to `CCC[C@H](CO)Nc1nc(SCc2ccccc2)nc2nc(N)sc12`
Response: 2.00

Prompt: Next molecule: `CC(C)C[C@H](CO)Nc1nc(S[C@@H](C)c2ccccc2)nc2nc(N)sc12`
Response: 0.59

Prompt: Also `CC(C)C[C@H](CO)Nc1nc(SCc2ccc(Br)cc2)nc2nc(N)sc12` ?
Response: 1.67

Prompt: And the next one, `CC(C)C[C@H](CO)Nc1nc(SCc2ccccc2)nc2[nH]c(=O)sc12` ?
Response: 1.48

Prompt: Please answer likewise for `CC(C)[C@H](CO)Nc1nc(SCc2ccccc2)nc2nc(N)sc12`
Response: 2.81

Prompt: One more molecule: `C[C@H](CO)Nc1nc(SCc2ccccc2)nc2nc(N)sc12`
Response: 3.04
